Reference source: patent USRE48335E1

Tested on: K. pneumoniae FADDI-KP032
Assay: In vivo efficacy in mouse blood infection model (neutropenic Swiss mice)
Conditions: compound, free base 4 mg/kg intravenously 2 h after inoculation, blood at 4 h
Positions of bridges follow the written chain, without caps; N, C: chain ends. Non-standard residues stand in square brackets, D forms with d. Residues, ends and D or L forms follow the SMILES beside them. *: point of attachment. X3 = O=C(c1ccc(Cl)cc1Cl)*; Octanoyl = CCCCCCCC(=O)*; X5 = Cc1cc(C(=O)*)ccc1Cl; Dab = NCC[C@H](N)C(=O)O; Abu = CC[C@H](N)C(=O)O; Dap = NC[C@H](N)C(=O)O
Below is a list of entries, each paired with its recorded Δ log (Treated-Control at 4 h) value.
Numbers only here, please. The scale is log10 CFU/mL.

Please review the entries below; each comes with its answer.
CC[C@@H]1NC(=O)[C@@H](CC(C)C)NC(=O)[C@H](CCN)NC(=O)[C@@H](NC(=O)[C@H](CN)NC(=O)[C@@H](NC(=O)[C@H](CCN)NC(=O)c2ccc(Cl)c(C)c2)[C@@H](C)O)CCNC(=O)[C@H]([C@@H](C)O)NC(=O)[C@H](CCN)NC(=O)[C@H](CCN)NC1=O [Compound 104] (X5-[Dab]T[Dap][Dab][Dab][dL][Abu][Dab][Dab]T; lactam 4-C); −3.23
CCCCCCCC(=O)N[C@@H](CCN)C(=O)N[C@H](C(=O)N[C@@H](CCN)C(=O)N[C@H]1CCNC(=O)[C@H]([C@@H](C)O)NC(=O)[C@H](CCN)NC(=O)[C@H](CCN)NC(=O)[C@H]([C@@H](C)O)NC(=O)[C@@H](Cc2ccccc2)NC(=O)[C@H](CCN)NC1=O)[C@@H](C)O [Compound 22] (Octanoyl-[Dab]T[Dab][Dab][Dab][dF]T[Dab][Dab]T; lactam 4-C); −3.11

Shift focus to the following entry.
Query: Send back K. pneumoniae FADDI-KP032 Δ log (Treated-Control at 4 h) of CC[C@@H]1NC(=O)[C@@H](CC(C)C)NC(=O)[C@H](CCN)NC(=O)[C@@H](NC(=O)[C@H](CN)NC(=O)[C@@H](NC(=O)[C@H](CCN)NC(=O)c2ccc(Cl)cc2Cl)[C@@H](C)O)CCNC(=O)[C@H]([C@@H](C)O)NC(=O)[C@H](CCN)NC(=O)[C@H](CCN)NC1=O [Compound 82] (X3-[Dab]T[Dap][Dab][Dab][dL][Abu][Dab][Dab]T; lactam 4-C) only.
Result: −3.33

* * *

Positions of bridges follow the written chain, without caps; N, C: chain ends. Non-standard residues stand in square brackets, D forms with d. Residues, ends and D or L forms follow the SMILES beside them. *: point of attachment. Phenylacetyl(4-Cl) = O=C(Cc1ccc(Cl)cc1)*; Heptanoyl(6-Me) = CC(C)CCCCC(=O)*; Decanoyl = CCCCCCCCCC(=O)*; Octanoyl = CCCCCCCC(=O)*; Dab = NCC[C@H](N)C(=O)O; Abu = CC[C@H](N)C(=O)O; Dap = NC[C@H](N)C(=O)O; Aib = CC(C)(N)C(=O)O
Consider molecules characterized by their Minimum inhibitory concentration, Ec FADDI-EC003 with Enterobacter cloacae.

Guide cases for Minimum inhibitory concentration, Ec FADDI-EC003, answers given:
CC[C@@H]1NC(=O)[C@@H](CC(C)C)NC(=O)[C@H](CCN)NC(=O)[C@@H](NC(=O)[C@H](CN)NC(=O)[C@@H](NC(=O)[C@H](CCN)NC(=O)Cc2ccc(Cl)cc2)[C@@H](C)O)CCNC(=O)[C@H]([C@@H](C)O)NC(=O)[C@H](CCN)NC(=O)[C@H](CCN)NC1=O [Compound 77] ({Phenylacetyl(4-Cl)}-[Dab]T[Dap][Dab][Dab][dL][Abu][Dab][Dab]T; lactam 4-C); <0.125 mg/L
CC(C)CCCCC(=O)N[C@@H](CCN)C(=O)N[C@H](C(=O)N[C@@H](CN)C(=O)N[C@H]1CCNC(=O)[C@H]([C@@H](C)O)NC(=O)[C@H](CCN)NC(=O)[C@H](CCN)NC(=O)[C@H](C)NC(=O)[C@@H](CC(C)C)NC(=O)[C@H](CCN)NC1=O)[C@@H](C)O [Compound 65] ({Heptanoyl(6-Me)}-[Dab]T[Dap][Dab][Dab][dL]A[Dab][Dab]T; lactam 4-C); <0.125 mg/L
CCCCCCCC(=O)N[C@@H](CCN)C(=O)N[C@H](C(=O)N[C@@H](CN)C(=O)N[C@H]1CCNC(=O)[C@H]([C@@H](C)O)NC(=O)[C@H](CCN)NC(=O)[C@H](CCN)NC(=O)[C@H](C)NC(=O)[C@@H](CC(C)C)NC(=O)[C@H](CCN)NC1=O)[C@@H](C)O [Compound 35] (Octanoyl-[Dab]T[Dap][Dab][Dab][dL]A[Dab][Dab]T; lactam 4-C); 0.25 mg/L
CCCCCCCC(=O)N[C@@H](CCN)C(=O)N[C@H](C(=O)N[C@@H](CO)C(=O)N[C@H]1CCNC(=O)[C@H]([C@@H](C)O)NC(=O)[C@H](CCN)NC(=O)[C@H](CCN)NC(=O)[C@H]([C@@H](C)O)NC(=O)[C@@H](CC(C)C)NC(=O)[C@H](CCN)NC1=O)[C@@H](C)O [Compound 4] (Octanoyl-[Dab]TS[Dab][Dab][dL]T[Dab][Dab]T; lactam 4-C); 0.25 mg/L
CCCCCCCCCC(=O)N[C@@H](CCN)C(=O)N[C@H](C(=O)N[C@@H](CN)C(=O)N[C@H]1CCNC(=O)[C@H]([C@@H](C)O)NC(=O)[C@H](CCN)NC(=O)[C@H](CCN)NC(=O)[C@H]([C@@H](C)O)NC(=O)[C@@H](CC(C)C)NC(=O)[C@H](CCN)NC1=O)[C@@H](C)O [Compound 37] (Decanoyl-[Dab]T[Dap][Dab][Dab][dL]T[Dab][Dab]T; lactam 4-C); 4 mg/L

Query: Tell me measured Minimum inhibitory concentration, Ec FADDI-EC003 for CCCCCCCC(=O)N[C@@H](CCN)C(=O)N[C@H](C(=O)N[C@@H](CN)C(=O)N[C@H]1CCNC(=O)[C@H]([C@@H](C)O)NC(=O)[C@H](CCN)NC(=O)[C@H](CCN)NC(=O)C(C)(C)NC(=O)[C@@H](CC(C)C)NC(=O)[C@H](CCN)NC1=O)[C@@H](C)O [Compound 45] (Octanoyl-[Dab]T[Dap][Dab][Dab][dL][Aib][Dab][Dab]T; lactam 4-C) please.
Result: 0.25 mg/L

* * *

System: Enterobacter cloacae
Positions of bridges follow the written chain, without caps; N, C: chain ends. Non-standard residues stand in square brackets, D forms with d. Residues, ends and D or L forms follow the SMILES beside them. *: point of attachment. Benzoyl(3-CF3) = O=C(c1cccc(C(F)(F)F)c1)*; X21 = O=C(c1ccc(C(F)(F)F)c(Cl)c1)*; Heptanoyl(6-Me) = CC(C)CCCCC(=O)*; X8 = O=C(c1ccc(C(F)(F)F)cc1Cl)*; Decanoyl = CCCCCCCCCC(=O)*; Nonanoyl = CCCCCCCCC(=O)*; X11 = Cc1ccc(C(=O)*)cc1Cl; X31 = O=C(c1ccc(Cl)cc1F)*; Heptanoyl = CCCCCCC(=O)*; Dab = NCC[C@H](N)C(=O)O; Abu = CC[C@H](N)C(=O)O; Dap = NC[C@H](N)C(=O)O
quantity: Minimum inhibitory concentration, Ec FADDI-EC001 (µg/mL)
Report the figure in µg/mL without appending any unit label.

CC[C@@H]1NC(=O)[C@@H](CC(C)C)NC(=O)[C@H](CCN)NC(=O)[C@@H](NC(=O)[C@H](CN)NC(=O)[C@@H](NC(=O)[C@H](CCN)NC(=O)c2ccc(Cl)cc2F)[C@@H](C)O)CCNC(=O)[C@H]([C@@H](C)O)NC(=O)[C@H](CCN)NC(=O)[C@H](CCN)NC1=O [Compound 134] (X31-[Dab]T[Dap][Dab][Dab][dL][Abu][Dab][Dab]T; lactam 4-C); 0.25
CCCCCCC(=O)N[C@@H](CCN)C(=O)N[C@H](C(=O)N[C@@H](CN)C(=O)N[C@H]1CCNC(=O)[C@H]([C@@H](C)O)NC(=O)[C@H](CCN)NC(=O)[C@H](CCN)NC(=O)[C@H](C)NC(=O)[C@@H](CC(C)C)NC(=O)[C@H](CCN)NC1=O)[C@@H](C)O [Compound 63] (Heptanoyl-[Dab]T[Dap][Dab][Dab][dL]A[Dab][Dab]T; lactam 4-C); 0.5

Query: Provide measured Minimum inhibitory concentration, Ec FADDI-EC001 on Enterobacter cloacae for CCCCCCCCC(=O)N[C@@H](CCN)C(=O)N[C@H](C(=O)N[C@H](CO)C(=O)N[C@H]1CCNC(=O)[C@H]([C@@H](C)O)NC(=O)[C@H](CCN)NC(=O)[C@H](CCN)NC(=O)[C@H]([C@@H](C)O)NC(=O)[C@@H](CC(C)C)NC(=O)[C@H](CCN)NC1=O)[C@@H](C)O [Compound 17] (Nonanoyl-[Dab]T[dS][Dab][Dab][dL]T[Dab][Dab]T; lactam 4-C) please.
Result: 0.25

Query: Given CC[C@@H]1NC(=O)[C@@H](CC(C)C)NC(=O)[C@H](CCN)NC(=O)[C@@H](NC(=O)[C@H](CN)NC(=O)[C@@H](NC(=O)[C@H](CCN)NC(=O)c2ccc(C)c(Cl)c2)[C@@H](C)O)CCNC(=O)[C@H]([C@@H](C)O)NC(=O)[C@H](CCN)NC(=O)[C@H](CCN)NC1=O [Compound 105] (X11-[Dab]T[Dap][Dab][Dab][dL][Abu][Dab][Dab]T; lactam 4-C) , report its Minimum inhibitory concentration, Ec FADDI-EC001 on Enterobacter cloacae.
Result: 1

Query: Name the recorded Minimum inhibitory concentration, Ec FADDI-EC001 of CCCCCCCCCC(=O)N[C@@H](CCN)C(=O)N[C@H](C(=O)N[C@@H](CN)C(=O)N[C@H]1CCNC(=O)[C@H]([C@@H](C)O)NC(=O)[C@H](CCN)NC(=O)[C@H](CCN)NC(=O)[C@H](C(C)C)NC(=O)[C@@H](CC(C)C)NC(=O)[C@H](CCN)NC1=O)[C@@H](C)O [Compound 39] (Decanoyl-[Dab]T[Dap][Dab][Dab][dL]V[Dab][Dab]T; lactam 4-C) , assay system Enterobacter cloacae.
Result: 0.5

Query: Quote Minimum inhibitory concentration, Ec FADDI-EC001 with test system Enterobacter cloacae for CC[C@@H]1NC(=O)[C@@H](CC(C)C)NC(=O)[C@H](CCN)NC(=O)[C@@H](NC(=O)[C@H](CN)NC(=O)[C@@H](NC(=O)[C@H](CCN)NC(=O)c2ccc(C(F)(F)F)c(Cl)c2)[C@@H](C)O)CCNC(=O)[C@H]([C@@H](C)O)NC(=O)[C@H](CCN)NC(=O)[C@H](CCN)NC1=O [Compound 115] (X21-[Dab]T[Dap][Dab][Dab][dL][Abu][Dab][Dab]T; lactam 4-C)
Result: 0.25

Query: Report value only: Minimum inhibitory concentration, Ec FADDI-EC001, Enterobacter cloacae, CC[C@@H]1NC(=O)[C@@H](CC(C)C)NC(=O)[C@H](CCN)NC(=O)[C@@H](NC(=O)[C@H](CN)NC(=O)[C@@H](NC(=O)[C@H](CCN)NC(=O)c2cccc(C(F)(F)F)c2)[C@@H](C)O)CCNC(=O)[C@H]([C@@H](C)O)NC(=O)[C@H](CCN)NC(=O)[C@H](CCN)NC1=O [Compound 106] ({Benzoyl(3-CF3)}-[Dab]T[Dap][Dab][Dab][dL][Abu][Dab][Dab]T; lactam 4-C)
Result: 0.25

Query: Would you please give the reported Minimum inhibitory concentration, Ec FADDI-EC001 of CC[C@@H]1NC(=O)[C@@H](CC(C)C)NC(=O)[C@H](CCN)NC(=O)[C@@H](NC(=O)[C@H](CN)NC(=O)[C@@H](NC(=O)[C@H](CCN)NC(=O)c2ccc(C(F)(F)F)cc2Cl)[C@@H](C)O)CCNC(=O)[C@H]([C@@H](C)O)NC(=O)[C@H](CCN)NC(=O)[C@H](CCN)NC1=O [Compound 109] (X8-[Dab]T[Dap][Dab][Dab][dL][Abu][Dab][Dab]T; lactam 4-C) with Enterobacter cloacae?
Result: 1

Query: Return reported Minimum inhibitory concentration, Ec FADDI-EC001 for target or system Enterobacter cloacae, item CC(C)CCCCC(=O)N[C@@H](CCN)C(=O)N[C@H](C(=O)N[C@@H](CN)C(=O)N[C@H]1CCNC(=O)[C@H]([C@@H](C)O)NC(=O)[C@H](CCN)NC(=O)[C@H](CCN)NC(=O)[C@H](C)NC(=O)[C@@H](CC(C)C)NC(=O)[C@H](CCN)NC1=O)[C@@H](C)O [Compound 65] ({Heptanoyl(6-Me)}-[Dab]T[Dap][Dab][Dab][dL]A[Dab][Dab]T; lactam 4-C) .
Result: 0.5
